Below, each entry is listed with its recorded Emis. peak.
- EXPERIMENT_DESCRIPTION: Measuring spectral characteristics (absorption and emission maxima, extinction coefficients)
- Format: physicochemical
- ASSAY_SETUP: ethanol; anionic form
- Description: To measure spectral characteristics of some compounds with the formula I weighted portions of compounds p-NH2-BDI-BF2, p-dimethylamino-BDI-BF2, p-diethylamino-BDI-BF2, p-HOBDI-BF2, di-F-p-HOBDI-BF2, p-diethylamino-BDI-dimethylaminoethenyl-BF2 and p-HOBDI-dimethylaminoethenyl-BF2 were dissolved in water, ethanol and acetonitrile. Absorption spectra were measured on Varian Cary 100 Bio spectrophotometer, fluorescence spectra were measured on Varian Cary Eclipse scanning spectrofluorometer. […]
METRIC: Emis. peak (nm)

| STRUCTURE_SMILES | METRIC | UNIT_ANNOTATION | QUANTITATIVE_RESULT |
| --- | --- | --- | --- |
| CN(C)/C=C/C1=NC(=C\c2ccc(O)cc2B(F)F)/C(=O)N1C | Emis. peak | nm | 587 |
| CC1=N/C(=C\c2ccc(O)cc2B(F)F)C(=O)N1C | Emis. peak | nm | 532 |
| CC1=N/C(=C\c2cc(F)c(O)c(F)c2B(F)F)C(=O)N1C | Emis. peak | nm | 538 |
| CC1=N/C(=C\c2cc(F)c(O)cc2B(F)F)C(=O)N1C | Emis. peak | nm | 537 |

meta.source: patent US9133220B2
